Each record here notes measured EC50.
System: HIV WT integrase
Assay: PhenoScreen (Phenosense) assay, single-round luciferase pseudotyped HIV
Assay type: cell-based
Settings: Human immunodeficiency virus 1, read-out: Activity, Phenosense assay, WT
Text: Monogram Bioscience' PhenoScreen assay allows the evaluation of integrase inhibitors for activity against a variety of HIV variants. The assay uses virus generated from 2 DNA constructs; one containing the HIV LTR, gag and pol regions, as well as a luciferase reporter gene in place of the viral envelope genes, and a second DNA construct containing the amphotrophic murine leukemia virus (A-MLV) envelope gene required to pseudotype virions and render them capable of entry into a target cell. […]

Recorded EC50, per entry:
O=c1c(O)c(-c2ncc(Cc3ccc(Cl)c(Cl)c3)s2)nc2ccc(N3CCOCC3)cn12    100 to 1000 nM
O=C(NCc1ccc(F)cc1)c1nc2c(I)cc(N3CCOCC3)cn2c(=O)c1O [Comparative example 3, reference compound]    1 to 100 nM

[ask] Name the recorded EC50 of the item O=c1c(O)c(-c2ncc(Cc3ccc(F)cc3)o2)nc2ccc(N3CCOCC3)cn12 in your answer.
[reply] 1 to 100 nM

[ask] Respond only with EC50 recorded for O=c1c(O)c(-c2ncc(Cc3ccc(F)cc3)s2)nc2ccc(N3CCOCC3)cn12
[reply] 1 to 100 nM

[ask] Please supply the value of reported EC50 for the item O=C(NCc1ccc(Cl)c(Cl)c1)c1nc2ccc(N3CCOCC3)cn2c(=O)c1O [Comparative example 1, reference compound]
[reply] 1 to 100 nM

[ask] Hello, please tell me recorded EC50 for this one: Cc1ccc2nc(-c3ncc(Cc4ccc(F)cc4)s3)c(O)c(=O)n2c1 [Comparative example 2, reference compound]
[reply] 100 to 1000 nM

[ask] Item O=c1c(O)c(-c2ncc(Cc3ccc(F)cc3)o2)nc2c(I)cc(N3CCOCC3)cn12 : provide EC50
[reply] 1 to 100 nM
